# Efficiency (%) (proportion of FAM positive cells) values compiled below
biological target: asialoglycoprotein receptor (ASGPR) on HepG2 cells (human) (UniProt P07306); experiment: flow cytometry, % FAM-positive HepG2 cells after 24 h with 1.6 nM ligand
Sequence (P07306 whole entry, chain 1 of 2): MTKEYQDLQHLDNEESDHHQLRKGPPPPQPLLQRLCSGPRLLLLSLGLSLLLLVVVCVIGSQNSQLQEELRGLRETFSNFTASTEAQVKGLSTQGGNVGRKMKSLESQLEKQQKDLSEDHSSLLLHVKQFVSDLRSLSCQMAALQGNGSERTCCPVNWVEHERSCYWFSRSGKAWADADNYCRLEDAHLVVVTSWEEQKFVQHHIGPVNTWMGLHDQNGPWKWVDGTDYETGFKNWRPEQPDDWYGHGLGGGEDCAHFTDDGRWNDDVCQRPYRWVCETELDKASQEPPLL
Sequence (P07307 whole entry, chain 2 of 2, further chain): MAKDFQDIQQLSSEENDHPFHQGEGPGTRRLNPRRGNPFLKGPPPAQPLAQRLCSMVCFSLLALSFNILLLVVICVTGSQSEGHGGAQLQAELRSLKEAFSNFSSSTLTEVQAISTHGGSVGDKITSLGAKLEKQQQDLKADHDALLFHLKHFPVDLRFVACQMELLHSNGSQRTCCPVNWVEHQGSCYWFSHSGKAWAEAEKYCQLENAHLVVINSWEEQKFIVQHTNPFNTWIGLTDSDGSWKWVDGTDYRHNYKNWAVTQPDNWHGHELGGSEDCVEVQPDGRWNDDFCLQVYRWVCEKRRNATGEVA
Square brackets hold non-standard residues; d marks the D form. Side chains are listed from the residue outwards. * marks the point of attachment. Gal‑3 = GalNAc linker: 4-(GalNAc-oxy)butanoic acid (3-acetamido-4,5-diacetoxy-6-(acetoxymethyl)tetrahydropyran-2-yl-oxy)butanoic acid; 5FAM = O=C1OC2(c3ccc(O)cc3Oc3cc(O)ccc32)c2ccc(C(=O)*)cc21; Linker2 = 6-aminohexyl amide linker; GalNAc = N-acetylgalactosamine
MEASURED ATTRIBUTE: Efficiency (%) (proportion of FAM positive cells)

BINDER: cyclo(K([Gal‑3-GalNAc])[dE]([Linker2-5FAM])K([Gal‑3-GalNAc])GK([Gal‑3-GalNAc])G) [5-FAM-CPMB-0033]
RESULT: 5.3%

BINDER: KEKGKG (head-to-tail cyclic; D-Glu; each Lys side chain carries GalNAc via linker Gal-4; D-Glu side chain carries Linker2 with 5-FAM) [5-FAM-CPMB-0034]
RESULT: 2%

BINDER: cyclo([dK]([Gal‑3-GalNAc])[dE]([Linker2-5FAM])[dK]([Gal‑3-GalNAc])G[dK]([Gal‑3-GalNAc])G) [5-FAM-CPMB-0023]
RESULT: 6.2%
